Ref: patent US20250388664A1

Biological target: T1, truncated hTfR1 of SEQ ID NO:122 (human, UniProt P02786 122-760)
T1 construct: also called human TfR1; Human TfR1
T1 sequence (P02786 other isoform, or with tags, fused parts or gaps limits assumed): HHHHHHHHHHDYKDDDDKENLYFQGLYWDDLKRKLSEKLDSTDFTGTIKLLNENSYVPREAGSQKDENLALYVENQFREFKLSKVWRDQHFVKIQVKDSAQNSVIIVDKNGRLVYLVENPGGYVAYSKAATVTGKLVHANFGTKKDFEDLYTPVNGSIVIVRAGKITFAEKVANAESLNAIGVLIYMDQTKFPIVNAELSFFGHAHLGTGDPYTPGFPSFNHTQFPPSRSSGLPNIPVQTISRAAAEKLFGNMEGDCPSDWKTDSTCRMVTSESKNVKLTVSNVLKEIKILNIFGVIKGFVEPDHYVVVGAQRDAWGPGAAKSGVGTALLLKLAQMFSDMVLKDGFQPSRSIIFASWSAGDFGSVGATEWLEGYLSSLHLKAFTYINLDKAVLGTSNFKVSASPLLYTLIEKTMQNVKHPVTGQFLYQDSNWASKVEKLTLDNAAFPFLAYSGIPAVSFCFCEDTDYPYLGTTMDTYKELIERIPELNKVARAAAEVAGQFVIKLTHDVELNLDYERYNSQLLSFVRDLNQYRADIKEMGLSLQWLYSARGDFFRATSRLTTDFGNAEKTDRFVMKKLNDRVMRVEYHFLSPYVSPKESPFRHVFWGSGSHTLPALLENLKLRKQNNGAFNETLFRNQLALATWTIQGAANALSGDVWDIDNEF
Experiment: SPR, FLAG-captured TfR1, scFv injected, 1:1 fit
RECORDED METRIC: koff (s⁻¹)
Write the answer as a number in s⁻¹, unit excluded.

Identify the reported koff for the following entry. h26D3 HC6 DS T120K (scFv, also called h26D3 DS T120K) scFv: HHHHHHGGGGSGGGGSGGGGSGGGGSDIQMTQSPSSVSASVGDRVTITCKSSQSLLYSTNQKNYLAWYQQKPGKAPKLLIYWASTRESGVPSRFSGSGSGTDFTLTISSLQPEDFATYYCQQYFIYPRTFGCGTKVEIKGGGGSGGGGSGGGGSGGGGSEVQLVQSGAEVKKPGSSVKVSCKASGYIFTDYNMDWVRQAPGQCLEWIGDINPDADTTSYNEKFKGRATLTVDKSTSTAYMELSSLRSEDTAVYYCARGGYSGSSYYHPMDYWGQGTLVKVSS 0.00429
